TARGET_SYSTEM: purified ppGalNAc-T3 (Homo sapiens)
Sequence (Q14435 38-633 limits assumed): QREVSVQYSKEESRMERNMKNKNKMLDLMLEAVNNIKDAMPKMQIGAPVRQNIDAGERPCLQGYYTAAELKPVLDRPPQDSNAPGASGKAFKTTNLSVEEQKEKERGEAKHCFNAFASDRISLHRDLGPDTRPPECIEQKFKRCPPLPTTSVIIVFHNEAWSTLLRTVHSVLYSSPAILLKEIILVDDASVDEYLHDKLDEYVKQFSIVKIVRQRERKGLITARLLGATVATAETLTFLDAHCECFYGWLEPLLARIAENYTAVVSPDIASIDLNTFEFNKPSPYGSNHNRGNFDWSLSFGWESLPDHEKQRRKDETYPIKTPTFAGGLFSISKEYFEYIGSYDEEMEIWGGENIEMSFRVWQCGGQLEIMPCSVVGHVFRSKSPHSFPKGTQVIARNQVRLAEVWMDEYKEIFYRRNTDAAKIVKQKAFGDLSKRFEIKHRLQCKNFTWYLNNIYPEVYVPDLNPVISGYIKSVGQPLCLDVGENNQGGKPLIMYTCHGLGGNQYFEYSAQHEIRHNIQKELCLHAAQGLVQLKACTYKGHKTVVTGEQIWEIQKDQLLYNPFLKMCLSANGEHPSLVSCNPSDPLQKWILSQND
TEST_CONTEXT: substrate varied: Peptide (EA2)
EXPERIMENTAL_READOUT: Ki (µM)
Please state the figure in µM; there is no need to write the unit.

QUERY: For purified ppGalNAc-T3 (Homo sapiens), provide Ki of O=C(Nc1ccc(Nc2ccncc2)cc1)c1ccc(Nc2ccnc3ccccc23)cc1 please.
RESULT: 9.9

----------
EXPERIMENTAL_READOUT: Kd (µM)
Please state the figure in µM; there is no need to write the unit.

QUERY: For purified lumenal domain of ppGalNAc-T3 (Homo sapiens, UniProt Q14435), provide Kd of O=C(Nc1ccc(Nc2ccncc2)cc1)c1ccc(Nc2ccnc3ccccc23)cc1 [Compound T3Inh-1] please.
RESULT: 17
